These compounds were tested on Staphylococcus aureus 209-P; MIC is the recorded read-out.
Answer in µg/mL, number only, no unit symbol.

Below are worked cases with known answers.
// assay Staphylococcus aureus 209-P, entry Cn1nnnc1SCC1=C(C(=O)O)N2C(=O)[C@@H](NC(=O)[C@H](NC(=O)c3coc4cc(O)ccc4c3=O)c3ccc(O)cc3)[C@H]2SC1 , MIC value = 0.4

// assay Staphylococcus aureus 209-P, entry Cn1nnnc1SCC1=C(C(=O)O)N2C(=O)[C@@H](NC(=O)[C@H](NC(=O)c3coc4c(O)c(O)ccc4c3=O)c3ccc(O)cc3)[C@H]2SC1 , MIC value = 0.8

// assay Staphylococcus aureus 209-P, entry CC(=O)Oc1cc2occ(C(=O)N[C@@H](C(=O)N[C@@H]3C(=O)N4C(C(=O)O)=C(CSc5nnnn5C)CS[C@H]34)c3ccc(O)cc3)c(=O)c2cc1OC(C)=O , MIC value = 1.56

// assay Staphylococcus aureus 209-P, entry O=C(O)Cn1nnnc1SCC1=C(C(=O)O)N2C(=O)[C@@H](NC(=O)[C@H](NC(=O)c3coc4c(O)c(O)c(O)cc4c3=O)c3ccc(O)cc3)[C@H]2SC1 , MIC value = 12.5

Next:
// assay Staphylococcus aureus 209-P, entry Cn1nnnc1SCC1=C(C(=O)O)N2C(=O)[C@@H](NC(=O)[C@H](NC(=O)c3coc4c(O)c(O)c(O)cc4c3=O)c3ccc(O)cc3)[C@H]2SC1 , MIC value = 3.13
